Target: CX3CR1 (Homo sapiens (Human), UniProt P49238)
Sequence (P49238 whole entry): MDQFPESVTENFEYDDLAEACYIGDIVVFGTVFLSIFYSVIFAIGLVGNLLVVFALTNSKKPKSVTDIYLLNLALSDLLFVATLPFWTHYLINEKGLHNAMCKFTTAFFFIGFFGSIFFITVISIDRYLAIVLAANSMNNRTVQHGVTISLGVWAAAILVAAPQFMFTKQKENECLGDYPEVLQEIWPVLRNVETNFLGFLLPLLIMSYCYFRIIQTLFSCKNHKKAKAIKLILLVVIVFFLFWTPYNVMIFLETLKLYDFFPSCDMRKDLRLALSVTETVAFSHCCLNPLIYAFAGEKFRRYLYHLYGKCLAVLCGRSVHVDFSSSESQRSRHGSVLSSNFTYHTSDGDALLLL
Test: CX3CR1-dependent cell adhesion to recombinant CX3CL1 in human whole blood under flow
Type: cell-based
Conditions: recombinant full-length CX3CL1
Description: Adhesion of cells to recombinant full-length human CX3CL1 was monitored under physiological flow using a Cellix VenaFlux microfluidics platform with connected fluorescent microscope and camera, and using Vena8 Fluoro+ Biochips (Cellix) pre-coated with anti-His monoclonal antibody (25 μg/mL; R&D Systems) and His-tagged full-length CX3CL1 (15 μg/mL; R&D Systems). CX3CR1-Dependent Cell Adhesion to Recombinant CX3CL1 in Human Whole Blood Under Flow […]
pIC50: −log10 of the molar value.
recorded-metric: pIC50

a = CC(C)C[C@H](CO)Nc1nc(C[C@@H](C)c2ccc(F)cc2F)nc(NS(C)(=O)=O)n1 (single isomer, unassigned) [Example 6]
b = CC(C)C[C@H](CO)Nc1nc(C[C@H](C)c2ccccc2F)nc(NS(C)(=O)=O)n1 (single isomer, unassigned) [Example 145]
c = COc1cc(F)c([C@H](C)Cc2nc(N[C@@H](CO)CC(C)C)nc(NS(C)(=O)=O)n2)cn1 (single isomer, unassigned) [Example 46]
d = COc1ccc([C@H](C)Cc2nc(N[C@@H](CO)CC(C)C)nc(NS(C)(=O)=O)n2)c(F)c1 (single isomer, unassigned) [Example 81]
Query: Thanks in advance: please rank these 4 entries by pIC50, highest to lowest. Rank them, then answer with their labels in that order.
Response: a, b, c, d

1 = CC(C)C[C@H](CO)Nc1nc(C[C@@H](C)c2cccc(F)c2F)nc(NS(C)(=O)=O)n1 (single isomer, unassigned) [Example 144]
2 = CC(C)C[C@H](CO)Nc1nc(C[C@@H](C)c2ccc(Cl)cn2)nc(NS(C)(=O)=O)n1 (single isomer, unassigned) [Example 150]
3 = COc1ccc([C@H](C)Cc2nc(N[C@@H](CO)CC(C)C)nc(NS(C)(=O)=O)n2)c(F)n1 (single isomer, unassigned) [Example 85]
Query: Sort (3 compounds) by pIC50: min first. // ordering of labels required in reply
Response: 2, 3, 1
(2: 5.80, 3: 6.16, 1: 6.82)

Numbers sourced from patent US20240199558A1.
